Where do the numbers come from? From ChEMBL document CHEMBL1201862.

# key: entry, value: IC50
tested.system: UniProtKB P49327
Sequence (P49327 whole entry, the tested form may be a part): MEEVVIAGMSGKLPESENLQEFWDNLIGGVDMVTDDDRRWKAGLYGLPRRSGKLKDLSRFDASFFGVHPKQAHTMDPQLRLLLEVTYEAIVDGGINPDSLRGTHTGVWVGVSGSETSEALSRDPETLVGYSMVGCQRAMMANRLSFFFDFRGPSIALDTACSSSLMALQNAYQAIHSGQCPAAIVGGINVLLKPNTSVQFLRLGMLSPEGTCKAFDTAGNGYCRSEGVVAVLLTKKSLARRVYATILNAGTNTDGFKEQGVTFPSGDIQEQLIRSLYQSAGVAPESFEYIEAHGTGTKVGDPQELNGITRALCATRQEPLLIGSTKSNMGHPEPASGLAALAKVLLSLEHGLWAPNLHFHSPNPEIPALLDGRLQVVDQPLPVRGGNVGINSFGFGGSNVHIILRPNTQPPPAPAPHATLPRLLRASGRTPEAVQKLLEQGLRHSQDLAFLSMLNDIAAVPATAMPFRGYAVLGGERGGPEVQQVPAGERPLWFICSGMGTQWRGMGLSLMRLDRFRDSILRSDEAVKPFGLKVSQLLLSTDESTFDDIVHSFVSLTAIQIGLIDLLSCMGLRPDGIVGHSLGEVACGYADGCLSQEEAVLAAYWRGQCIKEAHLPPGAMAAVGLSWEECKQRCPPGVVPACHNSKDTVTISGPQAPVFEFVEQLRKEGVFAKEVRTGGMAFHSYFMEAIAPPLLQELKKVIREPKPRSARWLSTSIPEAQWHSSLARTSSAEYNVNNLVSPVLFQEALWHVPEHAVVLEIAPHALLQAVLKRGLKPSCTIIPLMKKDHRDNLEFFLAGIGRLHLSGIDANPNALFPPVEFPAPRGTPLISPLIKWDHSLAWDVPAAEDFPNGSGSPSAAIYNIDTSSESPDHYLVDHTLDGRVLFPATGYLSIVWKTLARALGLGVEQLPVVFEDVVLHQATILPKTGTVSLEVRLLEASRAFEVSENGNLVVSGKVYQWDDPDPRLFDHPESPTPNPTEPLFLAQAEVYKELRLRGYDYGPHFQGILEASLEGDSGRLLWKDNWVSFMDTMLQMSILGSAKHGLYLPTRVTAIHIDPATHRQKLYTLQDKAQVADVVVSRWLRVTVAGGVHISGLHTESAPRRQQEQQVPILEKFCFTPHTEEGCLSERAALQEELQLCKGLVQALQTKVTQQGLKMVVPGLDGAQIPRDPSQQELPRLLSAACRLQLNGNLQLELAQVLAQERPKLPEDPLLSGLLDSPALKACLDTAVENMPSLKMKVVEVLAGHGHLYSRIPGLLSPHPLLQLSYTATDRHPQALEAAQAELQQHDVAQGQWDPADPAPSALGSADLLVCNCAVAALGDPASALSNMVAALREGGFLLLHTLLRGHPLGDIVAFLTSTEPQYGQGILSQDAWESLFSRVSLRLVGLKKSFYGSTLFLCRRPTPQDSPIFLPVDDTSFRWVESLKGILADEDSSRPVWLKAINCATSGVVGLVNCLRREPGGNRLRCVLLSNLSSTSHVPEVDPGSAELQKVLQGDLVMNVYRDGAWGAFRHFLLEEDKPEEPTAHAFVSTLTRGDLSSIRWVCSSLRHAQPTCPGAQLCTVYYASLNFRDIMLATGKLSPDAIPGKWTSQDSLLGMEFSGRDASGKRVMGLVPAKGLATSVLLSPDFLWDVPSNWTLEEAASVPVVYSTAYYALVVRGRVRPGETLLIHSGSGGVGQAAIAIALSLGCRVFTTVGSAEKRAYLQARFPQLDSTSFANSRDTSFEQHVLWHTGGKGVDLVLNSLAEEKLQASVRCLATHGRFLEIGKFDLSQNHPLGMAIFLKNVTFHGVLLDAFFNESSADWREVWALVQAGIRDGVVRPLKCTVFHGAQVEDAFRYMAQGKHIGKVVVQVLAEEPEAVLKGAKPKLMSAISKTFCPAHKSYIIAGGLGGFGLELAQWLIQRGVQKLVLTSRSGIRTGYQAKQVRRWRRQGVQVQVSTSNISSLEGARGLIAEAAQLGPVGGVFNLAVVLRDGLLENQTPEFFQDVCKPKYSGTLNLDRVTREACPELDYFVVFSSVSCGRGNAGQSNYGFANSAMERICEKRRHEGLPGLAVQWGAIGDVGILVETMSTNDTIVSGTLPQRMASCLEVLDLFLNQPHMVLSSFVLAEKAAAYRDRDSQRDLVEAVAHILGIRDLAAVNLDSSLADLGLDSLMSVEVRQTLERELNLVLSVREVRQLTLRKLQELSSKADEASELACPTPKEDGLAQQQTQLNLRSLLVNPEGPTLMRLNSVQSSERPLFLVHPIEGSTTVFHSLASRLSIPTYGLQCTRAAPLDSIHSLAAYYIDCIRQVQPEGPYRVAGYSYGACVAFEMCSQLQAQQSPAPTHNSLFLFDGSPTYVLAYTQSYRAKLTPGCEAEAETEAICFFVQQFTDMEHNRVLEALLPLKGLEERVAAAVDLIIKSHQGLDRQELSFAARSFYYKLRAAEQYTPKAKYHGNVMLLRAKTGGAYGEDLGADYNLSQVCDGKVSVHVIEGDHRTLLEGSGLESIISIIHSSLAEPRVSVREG
assay: FAS thioesterase domain inhibitors, dose response, biochemical, endpoint fluorescence intensity, uHTS hits (AID 624327);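 note: fluorescence from hydrolysis of an O-methyl fluorescein acyl ester substrate by the enzyme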
Format: functional
Calls of active or inactive are those of the source.

compound	IC50
COc1ccc2cc3cc(C(=O)N4CCCCC4C)oc3nc2c1 (centres undefined)	2.81 µM (active)
COc1ccc([N+](=O)[O-])cc1NC(=O)C(C)OC(=O)CC1CCCC1 (centres undefined)	6.83 µM (active)
CC(C)(C)C(=O)OCc1ccc(C2=CC(=O)CC(C)(C)C2=O)cc1	1.28 µM (active)
CCCCC(CC)C(=O)Nc1cc([N+](=O)[O-])ccc1F (centres undefined)	3.19 µM (active)

---

Test system: INS1
assay: beta cell apoptosis inhibitors, cytokine rescue, dose response, luminescence, retest (AID 449756);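 note: cell death triggered by IL-1 beta plus TNF-alpha plus IFN-gamma mixture; protective hits raise ATP signal compared with cytokine alone wells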
Format: functional, cell-based
experimental.conditions: Rattus norvegicus
Activity calls are given as the source filed them.
Outcome codes: t for active, f for inactive

mol	discrete.label
COc1ccc(/C=N/Nc2cc(C)nc(-n3nc(C)cc3C)n2)c(OC)c1	t
CN(C)S(=O)(=O)c1cccc(NC2=NN=C(c3ccccc3)CS2)c1	t
CCOc1ccc(/C=N/Nc2ccc(Cl)nn2)c(O)c1	t
OCCNc1nc(Nc2ccc(Cl)c(Cl)c2)nc2ccccc12	t
Cc1ccc(S(=O)(=O)c2ccc([N+](=O)[O-])cn2)cc1	f
O=[N+]([O-])c1cc(/C=N/Nc2nc3ccccc3[nH]2)c(O)cc1O	t
Cc1ccccc1-[n+]1c(-c2ccccc2)cc(-c2ccccc2)cc1-c1ccccc1.[O-][Cl+3]([O-])([O-])[O-]	t

---

tested.system: Cytochrome P450 3A4 (Homo sapiens);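 note: confirmatory qHTS run detecting inhibitors and substrates of CYP3A4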
Sequence (P08684 whole entry): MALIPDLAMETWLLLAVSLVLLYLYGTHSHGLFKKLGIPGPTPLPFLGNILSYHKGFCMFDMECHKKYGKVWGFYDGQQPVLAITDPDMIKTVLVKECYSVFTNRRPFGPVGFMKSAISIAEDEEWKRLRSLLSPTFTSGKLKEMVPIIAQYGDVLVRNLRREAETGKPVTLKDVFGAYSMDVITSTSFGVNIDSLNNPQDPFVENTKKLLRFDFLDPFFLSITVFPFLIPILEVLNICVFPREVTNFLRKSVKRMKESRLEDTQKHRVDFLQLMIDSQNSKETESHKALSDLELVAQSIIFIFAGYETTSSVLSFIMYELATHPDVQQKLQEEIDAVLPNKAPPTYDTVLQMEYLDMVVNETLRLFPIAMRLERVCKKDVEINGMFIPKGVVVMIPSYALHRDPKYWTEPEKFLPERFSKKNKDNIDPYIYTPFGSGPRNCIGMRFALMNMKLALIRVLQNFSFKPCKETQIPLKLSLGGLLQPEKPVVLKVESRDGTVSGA
experimental.conditions: Potency
AC50 values by entry
experimental.endpoint: AC50

compound	tested.system	reported.result
Oc1ccc2c(c1)OCC1(O)Cc3cc(O)c(O)cc3C21 (stereo not given)	Cytochrome P450 3A4 (Homo sapiens)	31.6 µM (inconclusive)
COc1cccc2sc(N)nc12	Cytochrome P450 3A4 (Homo sapiens)	15.8 µM (inconclusive)
COC(=O)NC(/C(C(=O)OC)=C(\C)NCc1ccccc1)c1cccs1 (stereo not given)	Cytochrome P450 3A4 (Homo sapiens)	3.98 µM (inconclusive)
Cc1cc(O)c(C=O)c2c1C(=O)Oc1c(C)c(O)c3c(c1O2)C(O)OC3=O (stereo not given) [NORSTICTIC ACID]	Cytochrome P450 3A4 (Homo sapiens)	39.8 µM (inconclusive)
COC(=O)[C@@H]1C[C@H]2CC[C@H](O)C[C@H]2N1Cc1ccc(N2CCOCC2)cc1	Cytochrome P450 3A4 (Homo sapiens)	20 µM (inconclusive)

---

We begin with a simple list: items and their reported AC50.
tested.system: Heat shock protein HSP 90-alpha (Homo sapiens, UniProt P07900)
Type: functional, organism-based
Active and inactive are the calls of the source.

molecule	AC50
Oc1ccc(Cl)c2cccnc12 [CLOXYQUIN]	6.15 µM (active)
CCc1ccc(OCC(=O)NNC(=S)NC(=O)C2CC2)c(Br)c1	0.978 µM (active)
O=[N+]([O-])c1cc(Cl)c(O)c2ncccc12	1.86 µM (active)
CCC(C)(C)c1ccc(OCCCC[n+]2cccc(C)c2C)c(C(C)(C)CC)c1	5.38 µM (active)
Cc1ccc(S(=O)(=O)c2ccc([N+](=O)[O-])cn2)cc1	4.18 µM (active)
CN(C)c1ccc(-n2cccc2/C=C/[N+](=O)[O-])cc1	4.36 µM (active)
